assay-info: yeast display, Sf9 membrane polyspecificity reagent, FACS + sequencing; frameworks hold sequencing errors
measurement-label: polyreactivity (PSR sort gate)

Previously resolved entries follow.
- sequence: "QVQLVESGGGLVQAGGSLRLSCAASGSTFGGYAMGWYRQAPGKERELVAAISGSGVRTYYADSEKGRFTISRDNAKNTVYLQMNSLQPEDTAVYYCAKRVRYPGDRYYYWGQGTQVTVSS"
  measurement-label: "polyreactivity (PSR sort gate)"
  test-value: "high polyreactivity"
- sequence: "QVQLVESGGGLVQAGGSLRLSCAASGSTFRLNAMGWYRQAPGKERELVAAISRSTGTTHYADSVKGRFTISRDNAKNTVYLQMNSLKPEDTAVYYCATDRAKWHKNGDLGYWGQGTQVTVSS"
  measurement-label: "polyreactivity (PSR sort gate)"
  test-value: "low polyreactivity"
- sequence: "QVQLVESGGGLVQAGGSLRLSCAASGSIFDNNAMGWYRQSPGKEREFVAAISWIGGSTSYADSVKGRFTISSDNAKNTVYLQMNSLKPEDTAVYYCNSLRYYPYGLPIYDYWGQGTQVTVSS"
  measurement-label: "polyreactivity (PSR sort gate)"
  test-value: "low polyreactivity"
- sequence: "QVQLVESGGGLVQAGGSLRLSCAASGRIFSINTMGWYRQAPGKERELVAAISVSGGRTYYADSVKGRFTISRENAKKSVYVQMNSLKPEVTAGYYCGAYGTTRMDYWGQGTQVTVSS"
  measurement-label: "polyreactivity (PSR sort gate)"
  test-value: "high polyreactivity"
- sequence: "QVQLVESGGGLVQAGGSLRLSCAASGRIITTYAMGRYRQAPGKERELVAPITSDGRTYYADSVKVRFTISRDNATHSVYLQMYSMKPEDTAVYYCNAAGRYAFPFGYNYWGQGTQVTVSS"
  measurement-label: "polyreactivity (PSR sort gate)"
  test-value: "high polyreactivity"
- sequence: "QVLLVESRGALVQAGGSLRLSCAASGSTFYWYAMGRYRQAPGKERELVASITRSGVRTYYADSVKGRFTISRDNGKNTVYLQMNSLKPEDTAVYYCAAERYYFPRSFRYGYWGQGTQVTVSS"
  measurement-label: "polyreactivity (PSR sort gate)"
  test-value: "low polyreactivity"

Okay, now this sequence:
(Q) Can you share its polyreactivity (PSR sort gate)? I mean this sequence: QVQLVESGGGLVQAGGSLRLSCAASGFIFSTYAMGWYRQAPGKERELVASTSRRAGRTYYADSVKGRFTISRDNAKNTVYLQMNSLKPEDTAVYYCAAEARVGYHFQILDYWGQGTQVTVSS
(A) high polyreactivity

----------
assay-info: yeast display, Sf9 membrane polyspecificity reagent, FACS + sequencing; frameworks hold sequencing errors
measurement-label: polyreactivity (PSR sort gate)

Previously resolved entries follow.
- sequence: "QVQLVESGGGLVQAGGSLRLSCAASGSTFTKYDMGWYRQAPGKERELVAAIRSGGDTNYADSVKGRFTISRDNAKNTVYLQMNSLKPEDTAVYYCAAERGPTNHTSYPWYEYHYWGQGTQVTVSS"
  polyreactivity (PSR sort gate): "low polyreactivity"
- sequence: "QVQLVESGGGLVQAGGSLRLSCAASGLTFYTYAMGWYRQAPGKERELVAAISTNGGSTYYADSVKGRFTISRDNAKNTVYLQMNSLKPEDTAVYYCAKEGGTYRIFNYWGQGTQVTVSS"
  polyreactivity (PSR sort gate): "low polyreactivity"
- sequence: "QVQLVESGGGLVQAGGSLRLSCAASGRIFSEYAMGWYRQAPGKERELVAAITRRGGSTYYADSVKGRFTISRDNAKNTVYLQMNSLKPEDTAVYYCNALLTGGYQDSYPDDYWGQGTQVTVSS"
  polyreactivity (PSR sort gate): "high polyreactivity"
- sequence: "QVHLVESGGGLVQAGGSLRLSCAASGGIFLDNAMGWYRQAPGKERELVASIRTRTYYADSVKGRFTISRDNAKNTVYLQMNSLKPEDTAVYYCAAAHRRWDGDYNYWGQGTQVTVSS"
  polyreactivity (PSR sort gate): "high polyreactivity"
- sequence: "QVQLVESGGGLVQAGGSLRLSCAASGRIFGNNAMGWYRQAPGKVRELVAAIRSRGTRTYYADSVKGRFTISRDNAKNTVNLQMNSLKPEDPAVYYCATTSLTGLYDRYDYWGQGTQVTVSS"
  polyreactivity (PSR sort gate): "high polyreactivity"

(Q) Can you share its polyreactivity (PSR sort gate)? I mean this sequence: QVQLVESGGGLVQAGGSLRLSCAASGRTFYGYAMGWYRQAPGKERELVASISRDGSTNDADSVKGRFTISRDNAKNTVYLQMNRLKPEDTEVYYCAADIWYYRYPIYYYSYDYWGQGTQVTVSS
(A) low polyreactivity

(Q) Can you share its polyreactivity (PSR sort gate)? I mean this sequence: QVQLVESGGGLVQAGGSLRLSCAASGFTFRYYAMGWYRQAPGKEREFVAAISRGGGTTYYADSVKGRFTISRDNAKNTVYLQMNSLKPEDTAVYYCATRALYWRYGYDYWGQGTQVTVSS
(A) high polyreactivity

(Q) Can you share its polyreactivity (PSR sort gate)? I mean this sequence: QVQLVESGGGLVQAGGTLRISCAASGSIFWYYAMGSYRQAPGKERELVAAISKSGGSTYYADSVKVRFTISRDNAKNTVYLQMNSLKQEDTAVYYCAKYGPVIDGVDYWGQGTQVTVSS
(A) low polyreactivity

(Q) Can you share its polyreactivity (PSR sort gate)? I mean this sequence: QVQLVESGGGLVQAGGSLRLSCAASGITFKGNAMGWYRQAPGKERELVAVITWSGGSTYYADSVKGRFTISRDNAKNTVYLQMNSLKPEDTAVYYCAKPWKYGDSQYDYWGQGTQVTVSS
(A) low polyreactivity

(Q) Can you share its polyreactivity (PSR sort gate)? I mean this sequence: QVQLVESGGGLVQAGGSLRLSCAASGRIFARYAMGWYRQAPGTERELVASITRSGGSTYYADSVKGRFTISRDNAKNTVYLQMNSLKPEDTAVYYCAARYGRVRDVIPYDYWGQGTQVTVSS
(A) high polyreactivity

(Q) Can you share its polyreactivity (PSR sort gate)? I mean this sequence: QVQLVESGGGLVQAGGSLRLSCAASGRTFKYNAMGWYRPAPGKERELVAAISSTGSTNYADSVKGRFTISRDNAKNTVYLQMNSLKPEDTAVYYCAASYFFVQWGWYYYWGQGTQVTVSS
(A) low polyreactivity

(Q) Can you share its polyreactivity (PSR sort gate)? I mean this sequence: QVQLVESGGGLVQAGGSLRLSCAASGSIFVTYAMGWYRQAPGKERELVAVITWGGGSTYYADSVKGRFTISRDNAKNTVYLQMNSLKPEDTAVYYCAKDSYYYRRDVTVDYWGQGTQVTVSS
(A) low polyreactivity

(Q) Can you share its polyreactivity (PSR sort gate)? I mean this sequence: QVQLVESGGGLVHAGGSLRLSCAASGFILRSYGMGWYRQAPGKERELVAAITRGGSTYYADSVKGRFTISRDNAKNTVYLQMNSLKPEDTAVYYCAARTRYYSQQFDYWGQGTQVTVSS
(A) high polyreactivity

(Q) Can you share its polyreactivity (PSR sort gate)? I mean this sequence: QVQLVESGGGLVQAGGSLRLSSAASGLIFWFYAMGWYRQAPGKERELVAAIDTDGGSTYYADSVKGRFTISRDNAKNTVYLQMNSLKPEDTAVYYCAATFAAYTQQTFYYWGQGTQVTVSS
(A) low polyreactivity

(Q) Can you share its polyreactivity (PSR sort gate)? I mean this sequence: QVQLVESGGGLVQAGGSLRLSCAASGITFTGYAMGWYRQAPGKERELVAAISVSTVSTYYADSVKGRFTISRDNAKNTDYLQMTSLKPEDTAVYYCNADATDSYPEKDEHDSWGQGTQVTVSS
(A) low polyreactivity

(Q) Can you share its polyreactivity (PSR sort gate)? I mean this sequence: QDQLVESGGGLVQAGGSLRLSCSASGRIFTRNTMGWYRQAPGKERELVAAITSRGGSTYYADSVKGRFTISRDNAKNTVYLQMNSLKPEDTAVYDCAADKPRSYYYWGQGTQVTVSS
(A) high polyreactivity

(Q) Can you share its polyreactivity (PSR sort gate)? I mean this sequence: QVQLVYSGGGLVQAGGSLRLSCAASGIIFGVNAMGWYRQAPGKERELVAAISSSGGSTYYADSVKGRFTISRDNAKNTVYLQMNSLKPEDTAVYYCAASYYHYAPFDYWGQGTQVTVSS
(A) high polyreactivity

(Q) Can you share its polyreactivity (PSR sort gate)? I mean this sequence: QVQLVESGGRLVQAGGSLRLSCAASGRTIYGNVMGWYRQAPGKERELVAVISWSSGSTSYADSVKGRFTISRDNAKNTVYLQMKSLKPEDTAVFYCAADSVTRPAGDYWGHGTQVTVSS
(A) low polyreactivity

(Q) Can you share its polyreactivity (PSR sort gate)? I mean this sequence: QVQLVESGGGLVQAGGSLRLSCPASGSTIPLYAMGWYRPAPGKERELVAAISRRGGRTYYADSVKGRFTISRDNAKNSVYLQMNSLKPEDTAVYYCATAQGSRVDYWGQGTQVTVSS
(A) high polyreactivity

(Q) Can you share its polyreactivity (PSR sort gate)? I mean this sequence: QVQLVESGGGLVQAGGSLRLSCAASGSIFFDGNAMGWYRQAPGKERELVAAISVSGGSTYYADSVKGRFTISRDNAKNTVYLQMNSLKAEDTAVYYCAKYPSKSYVPGDYWGQGTQVTVSS
(A) low polyreactivity

(Q) Can you share its polyreactivity (PSR sort gate)? I mean this sequence: QVQLVESAGGLVQAGGSLRLSCAASGSTFLSYFMGWYRQAPGKERELVAAITGTGGRTYYADSVKGRFTISRDNAKNTVYLQMNSLKPEDSAVYYCTAYRKHGYDYWGQGTQVTVSS
(A) high polyreactivity
